Where do these numbers come from? They come from ChEMBL document CHEMBL1152307.

Items are presented alongside their recorded MIC.
# Test system: Mycobacterium tuberculosis
# protocol details: Antimycobacterial activity against Mycobacterium tuberculosis H37Rv after 4 days by microplate alamar blue assay
# Assay type: functional
# test parameters: 96 h

Record excerpt, results attached:
CC(C)[C@H]1C[C@@H](N(Cc2ccccc2)c2ccccc2)CCN1C (relative stereo) = > 6.25 µg/mL
c1ccc(CN(c2ccccc2)[C@H]2CCN(c3ccccc3)[C@@H](c3ccccc3)C2)cc1 (relative stereo) = > 6.25 µg/mL
CN1CCC(N(Cc2ccccc2)c2ccccc2)CC1 = > 6.25 µg/mL
CC(C)[C@@H]1C[C@@H](N(Cc2ccccc2)c2ccccc2)CCN1c1ccccc1 (relative stereo) = > 6.25 µg/mL
CO[C@H]1/C=C/O[C@@]2(C)Oc3c(C)c(O)c4c(O)c(c(/C=N/N5CCN(C)CC5)c(O)c4c3C2=O)NC(=O)/C(C)=C\C=C\[C@H](C)[C@H](O)[C@@H](C)[C@@H](O)[C@@H](C)[C@H](OC(C)=O)[C@@H]1C = 0.06 µg/mL
NNC(=O)c1ccncc1 = 0.025 µg/mL
CC(C)[C@H]1C[C@@H](N(Cc2ccccc2)c2ccccc2)CCN1c1ccccc1 (relative stereo) = > 6.25 µg/mL
c1ccc(CN(c2ccccc2)[C@H]2CCN(c3ccccc3)[C@H](c3ccccc3)C2)cc1 (relative stereo) = > 6.25 µg/mL

query: I am curious: what MIC value has been reported for COc1ccc(N(Cc2ccccc2)[C@H]2CCN(C)C(C)(C)C2)cc1 ?
result: > 6.25 µg/mL

query: // same read-out, input: CN1CC[C@H](N(Cc2ccccc2)c2ccccc2)CC1(C)C
result: > 6.25 µg/mL

query: Item: CC1(C)C[C@@H](N(Cc2ccccc2)c2ccccc2)CCN1c1ccccc1
result: 6.25 µg/mL
